biological target: CDK4 (Homo sapiens, UniProt P11802); construct: endogenous in cells; assay: CDK4 degradation (DC50, Dmax); assay type: cell-based
Sequence (P11802 whole entry): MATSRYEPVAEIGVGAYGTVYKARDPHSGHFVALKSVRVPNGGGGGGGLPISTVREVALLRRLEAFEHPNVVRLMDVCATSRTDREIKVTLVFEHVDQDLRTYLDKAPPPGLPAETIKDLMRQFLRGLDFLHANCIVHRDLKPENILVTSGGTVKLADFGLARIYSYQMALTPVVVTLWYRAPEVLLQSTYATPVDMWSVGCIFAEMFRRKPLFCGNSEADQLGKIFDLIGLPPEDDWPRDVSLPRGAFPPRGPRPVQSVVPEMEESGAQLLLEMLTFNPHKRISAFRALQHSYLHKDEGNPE
QUANTITY: DC50

Some entries whose results are on file:
1. Cc1nc2c(F)cc(-c3nc(Nc4ccc(CN5CCN(C6CN(c7cccc8c7C(=O)N(C7CCC(=O)NC7=O)C8=O)C6)CC5)cn4)ncc3F)cc2n1C(C)C (stereo not drawn) :: 50 to 200 nM
2. Cc1nc2c(F)cc(-c3nc(Nc4ccc(CN5CCN(C6CCN(c7ccc8c(c7)CN(C7CCC(=O)NC7=O)C8=O)CC6)CC5)cn4)ncc3F)cc2n1C(C)C (stereo not drawn) :: 50 to 200 nM

### Prompt Which value of DC50 has been reported for CC(=O)c1c(C)c2cnc(Nc3ccc(N4CCN(C(=O)N5CCN(CCN6CCC(c7ccc8c(c7)C(=O)N(C7CCC(=O)NC7=O)C8=O)CC6)CC5)CC4)cn3)nc2n(C2CCCC2)c1=O (stereo not drawn) in the records?
### Response > 200 nM
